molecular target: 14-3-3τ (UniProt P27348); test: cell-based or functional assay
Sequence (P27348 whole entry): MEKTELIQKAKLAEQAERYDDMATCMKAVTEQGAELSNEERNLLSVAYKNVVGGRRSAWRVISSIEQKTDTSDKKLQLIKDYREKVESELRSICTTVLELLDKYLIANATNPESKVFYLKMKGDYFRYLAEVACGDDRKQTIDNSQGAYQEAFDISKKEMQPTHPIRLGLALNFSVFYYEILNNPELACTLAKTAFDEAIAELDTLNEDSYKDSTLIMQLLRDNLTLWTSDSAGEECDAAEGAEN
attribute_measured: PKA-induced fluorescence change; Ponceau S 5x (fold)

phosphorylated P5 peptide AcDap(Pyr)RTGRRFS(PO3 2-)YP-amide    2.85
P3, Ac-GRTDap(Pyr)RRFSYP-amide, serine-phosphorylated by PKA in the assay (peptide)    1.81
P2, Ac-GRTGRRDap(Pyr)SYP-amide, serine-phosphorylated by PKA in the assay (peptide)    1.93
P4, Ac-GRDap(Pyr)GRRFSYP-amide, serine-phosphorylated by PKA in the assay (peptide)    2.26

###

target: 14-3-3τ (UniProt P27348); assay: cell-based or functional assay
attribute_measured: PKA-induced fluorescence change; Eriochrome Black T 5x (fold)

phosphorylated P5 peptide AcDap(Pyr)RTGRRFS(PO3 2-)YP-amide    1.61
P2, Ac-GRTGRRDap(Pyr)SYP-amide, serine-phosphorylated by PKA in the assay (peptide)    1.46
P3, Ac-GRTDap(Pyr)RRFSYP-amide, serine-phosphorylated by PKA in the assay (peptide)    1.1
P4, Ac-GRDap(Pyr)GRRFSYP-amide, serine-phosphorylated by PKA in the assay (peptide)    1.32
